tested on: Vesicular stomatitis virus; test: Antiviral activity against VSV infected in human HeLa cells assessed as reduction of virus-induced cytopathic effect at 10 to 100 ug/ml; assay type: functional, organism-based
Calls of active or inactive are those of the source. The rule behind the calls is not given here.
measurementType: Activity

1. Cc1ccc(S(=O)(=O)N(CCOCP(=O)(O)O)Cn2ccc(N)nc2=O)cc1 :: inactive
2. Cc1ccc(S(=O)(=O)N(CCOCP(=O)(O)O)Cn2cc(C)c(=O)[nH]c2=O)cc1 :: inactive
3. Cc1ccc(S(=O)(=O)N(CCOCP(=O)(O)O)Cn2ccc(=O)[nH]c2=O)cc1 :: inactive
4. Cc1ccc(S(=O)(=O)N(CCOCP(=O)(O)O)Cn2cc(F)c(=O)[nH]c2=O)cc1 :: inactive

---

system: Feline coronavirus; assay: Antiviral activity against Feline coronavirus infected in cat CRFK cells assessed as effect on cell viability at 10 to 100 ug/ml by MTS assay; assay type: functional, organism-based
Calls of active or inactive are those of the source. No cut-off for these calls is given here.
measurementType: Activity

1. Cc1ccc(S(=O)(=O)N(CCOCP(=O)(O)O)Cn2cc(F)c(=O)[nH]c2=O)cc1 :: inactive
2. Cc1ccc(S(=O)(=O)N(CCOCP(=O)(O)O)Cn2ccc(=O)[nH]c2=O)cc1 :: inactive
3. Cc1ccc(S(=O)(=O)N(CCOCP(=O)(O)O)Cn2ccc(N)nc2=O)cc1 :: inactive
4. Cc1ccc(S(=O)(=O)N(CCOCP(=O)(O)O)Cn2cc(C)c(=O)[nH]c2=O)cc1 :: inactive
